Sourced from patent US4456614A

assay: Solubility in water; assay type: physicochemical
Readout Type: solubility (mg/mL)
Express the result in mg/mL but write the number alone.

Query: Query (compound): CC(C)(C)NCC(O)COCC1COc2ccccc2O1 (stereo not shown) ; field requested: solubility
Response: 100
